Test system: Staphylococcus aureus
Assay method text: Antibacterial activity against Staphylococcus aureus ATCC 29213 assessed as inhibition of bacterial growth measured for 18 to 24 hrs by broth dilution method
Assay type: functional
Run parameters: time 18-24 hrs
Value type: MIC

> print(dat)
                                   compound  reported.value
1  COc1ccc(-c2ccn(-c3ccc(NC(=S)NCc4ccccc4)cc3)n2)cc1OC      > 64 µg/mL
2  O=C(Nc1ccc(-n2ccc(-c3cccnc3)n2)cc1)Nc1ccc(Cl)c(Cl)c1      > 64 µg/mL
3  COc1ccc(-c2ccn(-c3ccc(NC(=O)Nc4ccccc4)cc3)n2)cc1OC      > 64 µg/mL

// sample `COc1ccc(-c2ccn(-c3ccc(NC(=S)Nc4ccc([N+](=O)[O-])cc4)cc3)n2)cc1OC` , its MIC was > 64 µg/mL

The compound listed as `O=C(Nc1ccc(-n2ccc(-c3ccccc3)n2)cc1)Nc1ccc(Cl)c(Cl)c1` has a reported MIC of > 64 µg/mL

response.value for `COc1ccc(-c2ccn(-c3ccc(NC(=S)NC4CCCCC4)cc3)n2)cc1OC` (field: MIC) = > 64 µg/mL

Lab note: measured MIC of `COc1ccc(-c2ccn(-c3ccc(NC(=O)Nc4ccc(F)cc4F)cc3)n2)cc1OC` was > 64 µg/mL

Sample `O=C(NCc1ccccc1)Nc1ccc(-n2ccc(-c3ccc4ccccc4c3)n2)cc1` ; MIC observed: > 64 µg/mL

// MIC lookup, compound = C[C@H]1COc2c(N3CCN(C)CC3)c(F)cc3c(=O)c(C(=O)O)cn1c23 [LEVOFLOXACIN ANHYDROUS] , result: 0.25 µg/mL

The measurements presented in this section are drawn from ChEMBL document CHEMBL5329155.
